Tested on: 299254-011-R-J1-PDC complex spheroid viability;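 further: spheroids exposed to drugs for one week before measurement; percent viability relative to DMSO vehicle control taken as 100%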
RUN_DESCRIPTION: Anticancer human tumor 299254-011-R-J1-PDC patient-derived melanoma cell line growth inhibition [POLQ]
MEASUREMENT_CONTEXT: second compound 0.316 µM; first compound 3.16 µM; hits give low values
MEASURED_ENDPOINT: viability, T/C (%)
Expressed in %, but write only the number.

Consider the worked cases shown below.
- COMPOUND: "O=c1[nH]cc(F)c(=O)[nH]1 + COC1C(OC(N)=O)C(O)C(Oc2ccc3c(O)c(NC(=O)c4ccc(O)c(CC=C(C)C)c4)c(=O)oc3c2C)OC1(C)C"
  OUTPUT_UNIT: "%"
  viability, T/C: 91.8
- COMPOUND: "CCCS(=O)(=O)Nc1ccc(F)c(C(=O)c2c[nH]c3ncc(-c4ccc(Cl)cc4)cc23)c1F + Nc1ccc(C#CCN(C(=O)Cc2ncc(C(F)(F)F)cc2C(F)(F)F)c2ccc(F)cc2)nn1"
  OUTPUT_UNIT: "%"
  viability, T/C: 129
- COMPOUND: "CNCc1ccc(-c2[nH]c3cc(F)cc4c3c2CCNC4=O)cc1 + Nc1ccc(C#CCN(C(=O)Cc2ncc(C(F)(F)F)cc2C(F)(F)F)c2ccc(F)cc2)nn1"
  OUTPUT_UNIT: "%"
  viability, T/C: 119
- COMPOUND: "CC1COCCN1c1cc(C2(S(C)(=N)=O)CC2)nc(-c2ccnc3[nH]ccc23)n1 (stereo not given) + COC1C(OC(N)=O)C(O)C(Oc2ccc3c(O)c(NC(=O)c4ccc(O)c(CC=C(C)C)c4)c(=O)oc3c2C)OC1(C)C"
  OUTPUT_UNIT: "%"
  viability, T/C: 69.9

Given the compound C=CC(=O)N1CCN(c2nc(=O)n(-c3c(C)ccnc3C(C)C)c3nc(-c4c(O)cccc4F)c(F)cc23)C(C)C1 (stereo not given) + Nc1ccc(C#CCN(C(=O)Cc2ncc(C(F)(F)F)cc2C(F)(F)F)c2ccc(F)cc2)nn1 , what is its reported viability, T/C?
77.9
